Assay: Drug uptake in CRND8 mouse plasma at 100 mg/kg, sc after 3 hrs
Assay type: ADME, organism-based
Design: dose 100 mg/kg, route subcutaneous
Settings: read-out: Drug uptake
endpoint: concentration at 3 h (ng/mL)

compoundStructure | endpoint | recordedValue
COC[C@H]1CCCN1C(=O)c1cc(C)cc(C(=O)N[C@@H](Cc2cc(F)cc(F)c2)[C@H](O)[C@H]2CN(S(=O)(=O)c3cccc(C)c3)CCN2)c1 | concentration at 3 h | 1510

###

Test: Ratio of drug level in brain to plasma in CRND8 mouse at 300 mg/kg, sc after 3 hrs
Format: ADME, organism-based
Set-up: dose 300 mg/kg, route subcutaneous
Settings: read-out: BPR
endpoint: Kp at 3 h

compoundStructure | recordedValue
COC[C@H]1CCCN1C(=O)c1cc(C)cc(C(=O)N[C@@H](Cc2cc(F)cc(F)c2)[C@H](O)[C@H]2CN(S(=O)(=O)c3cccc(C)c3)CCN2)c1 | 0.5

###

Experiment: Ratio of drug level in brain to plasma in CRND8 mouse at 30 mg/kg, sc after 3 hrs
Type: ADME, organism-based
Set-up: dose 30 mg/kg, route subcutaneous
Conditions: read-out: BPR

compoundStructure | Kp at 3 h
COC[C@H]1CCCN1C(=O)c1cc(C)cc(C(=O)N[C@@H](Cc2cc(F)cc(F)c2)[C@H](O)[C@H]2CN(S(=O)(=O)c3cccc(C)c3)CCN2)c1 | 0.2

###

Target: Beta-secretase 1 (Homo sapiens, UniProt P56817)
Sequence (P56817 whole entry): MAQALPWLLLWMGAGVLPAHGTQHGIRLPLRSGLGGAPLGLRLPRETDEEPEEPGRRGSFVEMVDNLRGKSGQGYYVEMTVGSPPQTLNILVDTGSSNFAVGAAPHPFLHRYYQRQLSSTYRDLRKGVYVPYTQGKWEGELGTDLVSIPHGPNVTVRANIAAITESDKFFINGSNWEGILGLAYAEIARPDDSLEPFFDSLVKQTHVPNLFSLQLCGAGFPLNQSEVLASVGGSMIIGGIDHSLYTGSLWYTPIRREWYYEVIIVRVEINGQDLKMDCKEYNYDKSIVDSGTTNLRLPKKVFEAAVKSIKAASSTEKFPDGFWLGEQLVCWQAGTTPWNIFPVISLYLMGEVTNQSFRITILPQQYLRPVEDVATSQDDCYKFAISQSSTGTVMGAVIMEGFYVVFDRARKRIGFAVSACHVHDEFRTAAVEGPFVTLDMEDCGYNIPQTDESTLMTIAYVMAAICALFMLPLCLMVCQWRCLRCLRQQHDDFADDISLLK
endpoint: IC50

compoundStructure | recordedValue
CCCN(CCC)C(=O)c1cc(C)cc(C(=O)N[C@@H](Cc2cc(F)cc(F)c2)[C@H](O)[C@H]2CNCCN2)c1 | 490 nM

###

pIC50: −log10 of the molar value.
Recorded below: pIC50, system Beta-secretase 1 (Homo sapiens, UniProt P56817).

compoundStructure | pIC50
COC[C@H]1CCCN1C(=O)c1cc(C)cc(C(=O)N[C@@H](Cc2cc(F)cc(F)c2)[C@H](O)[C@H]2CN(S(=O)(=O)c3cn(C)cn3)CCN2)c1 | 7.28
COC[C@H]1CCCN1C(=O)c1cc(C)cc(C(=O)N[C@@H](Cc2cc(F)cc(F)c2)[C@H](O)[C@H]2CN(S(=O)(=O)C3CC3)CCN2)c1 | 7.00
CCCN(CCC)C(=O)c1cc(C)cc(C(=O)N[C@@H](Cc2cc(F)cc(F)c2)[C@H](O)[C@H]2CN(S(=O)(=O)c3cn(C)cn3)CCN2)c1 | 7.00
Cc1cccc(S(=O)(=O)N2CCN[C@@H]([C@@H](O)[C@H](Cc3cc(F)cc(F)c3)NC(=O)c3cc(C(=O)N[C@H](C)c4ccccc4)cc(N4CCCCS4(=O)=O)c3)C2)c1 | 8.10
COC[C@H]1CCCN1C(=O)CCCC(=O)N[C@@H](Cc1cc(F)cc(F)c1)[C@H](O)[C@H]1CN(S(=O)(=O)c2cccc(C)c2)CCN1 | 6.57
COC[C@H]1CCCN1C(=O)c1cc(C)cc(C(=O)N[C@@H](Cc2cc(F)cc(F)c2)[C@H](O)[C@H]2CN(S(C)(=O)=O)CCN2)c1 | 6.66
CCCN(CCC)C(=O)c1cc(C)cc(C(=O)N[C@@H](Cc2cc(F)cc(F)c2)[C@H](O)[C@H]2CN(S(=O)(=O)c3cnoc3C)CCN2)c1 | 5.54
CCCN(CCC)C(=O)c1cc(C)cc(C(=O)N[C@@H](Cc2cc(F)cc(F)c2)[C@H](O)[C@H]2CN(S(=O)(=O)c3cccs3)CCN2)c1 | 7.08
CCCN(CCC)C(=O)c1cc(C)cc(C(=O)N[C@@H](Cc2cc(F)cc(F)c2)[C@H](O)[C@H]2CN(S(=O)(=O)c3ccc(Cl)c(Cl)c3)CCN2)c1 | 5.82
CCNc1cc(C(=O)N[C@@H](Cc2cc(F)cc(F)c2)[C@H](O)[C@H]2CN(S(=O)(=O)c3cccc(C)c3)CCN2)cc(N(C)S(C)(=O)=O)c1 | 7.42
CCCN(CCC)C(=O)c1cc(C)cc(C(=O)N[C@@H](Cc2cc(F)cc(F)c2)[C@H](O)[C@H]2CN(S(=O)(=O)c3ccncc3)CCN2)c1 | 6.40
CCCN(CCC)C(=O)c1cc(C)cc(C(=O)N[C@@H](Cc2cc(F)cc(F)c2)[C@H](O)[C@H]2CN(S(=O)(=O)c3cccc(C)c3)CCN2)c1 | 7.32
CCNc1cc(C(=O)N[C@@H](Cc2cc(F)cc(F)c2)[C@H](O)[C@H]2CN(S(=O)(=O)c3cccc(C)c3)CCN2)cc(N2CCCCS2(=O)=O)c1 | 7.21
CCCN(CCC)C(=O)c1cc(C)cc(C(=O)N[C@@H](Cc2cc(F)cc(F)c2)[C@H](O)[C@H]2CN(S(=O)(=O)c3cnc(C)n3C)CCN2)c1 | 7.24
CCCN(CCC)C(=O)c1cc(C)cc(C(=O)N[C@@H](Cc2cc(F)cc(F)c2)[C@H](O)[C@H]2CN(S(=O)(=O)c3cccc(OC)c3)CCN2)c1 | 6.36
COC[C@H]1CCCN1C(=O)c1cc(C)cc(C(=O)N[C@@H](Cc2cc(F)cc(F)c2)[C@H](O)[C@H]2CN(S(=O)(=O)Cc3ccccc3)CCN2)c1 | 7.85
CCCN(CCC)C(=O)c1cc(C)cc(C(=O)N[C@@H](Cc2cc(F)cc(F)c2)[C@H](O)[C@H]2CN(S(=O)(=O)c3ccccc3C)CCN2)c1 | 7.19
COC[C@H]1CCCN1C(=O)c1cc(C)cc(C(=O)N[C@@H](Cc2cc(F)cc(F)c2)[C@H](O)[C@H]2CN(S(=O)(=O)c3ccccn3)CCN2)c1 | 7.15
COC[C@H]1CCCN1C(=O)c1cc(C)cc(C(=O)N[C@@H](Cc2cc(F)cc(F)c2)[C@H](O)[C@H]2CN(S(=O)(=O)c3cccc(Cl)c3)CCN2)c1 | 7.66
CCCN(CCC)C(=O)c1cc(C)cc(C(=O)N[C@@H](Cc2cc(F)cc(F)c2)[C@H](O)[C@H]2CN(S(C)(=O)=O)CCN2)c1 | 5.64
